# Test system: A549 NSCLC
# test.method.notes: NCI tumour cell line growth inhibition, 48 h
Entries and their measured TGI follow.
property.measured: TGI

| compound | property.measured | meas.value |
| --- | --- | --- |
| Cn1c(=O)oc2nc(-c3ccccc3)cc(C(F)(F)F)c21 | TGI | > 100 µM |
| O=C1CC(=O)n2cnc3cccc(c32)N1 | TGI | > 100 µM |
| NCc1cccc(O)c1O | TGI | > 100 µM |
| COc1cccc(C=O)c1[O-].[O]=[U](=[O])([OH2+])[OH2+] | TGI | > 100 µM |
| Cc1ccccc1-c1nc2c(C(=O)NCCN(C)C)cccc2[nH]1 | TGI | > 100 µM |
| O=c1cc(N/N=C/c2ccc(F)cc2)c2cc(Cl)ccc2[nH]1 | TGI | > 100 µM |
| COc1cccc(N[C@@H]2c3cc4c(cc3C(c3cc(OC)c(O)c(OC)c3)[C@H]3C(=O)OCC32)OCO4)c1 (stereo partly drawn) | TGI | 2.14 µM |
| C=CC[n+]1c2ccccc2n2cc([N+](=O)[O-])ccc21 | TGI | > 100 µM |
| Cc1nc(N)c(N2CCN(CN)CC2)c(=O)[nH]1 | TGI | > 100 µM |
| COc1cccc(N=N/C(=N\NC(=O)c2ccc(C)cc2)c2ccc(N(CCC#N)CCC#N)cc2C)c1 | TGI | > 100 µM |
| CC(C)C(C/C=C1\CC(CO)(COC(=O)C2CCCCC2)OC1=O)C(C)C (stereo not drawn) | TGI | 32 µM |
| CC(C)CCCC(C)[C@H]1CCC2[C@@H]3CCC4Nc5c(cnn5-c5ccccc5)C[C@]4(C)C3CC[C@@]21C (stereo partly drawn) | TGI | > 100 µM |
| C[Si](C)(C)/C=C\CCO | TGI | > 100 µM |
| CC1=Nc2ccccc2/C1=C\c1c(C)[nH]c2ccccc12 | TGI | 73.6 µM |
| O=C1C=CC(=O)c2c(O)c(NCCOCCO)c(Cl)c(O)c21 | TGI | 19.1 µM |
| CCOC(=O)c1cc(C)nc2c1c(=O)n(-c1ccccc1)c(=O)n2CCCCN1CCN(c2ccccc2)CC1 | TGI | > 100 µM |
| COc1ccc(-c2nc(-c3nc4ccc(F)cc4[nH]3)c3ccccn23)cc1 | TGI | 28.4 µM |
| NN=C(CC(O)(C(F)(F)Cl)C(F)(F)Cl)CC(O)(C(F)(F)Cl)C(F)(F)Cl | TGI | > 10 µM |

====

# Test system: SK-MEL-2 melanoma
# test.method.notes: NCI tumour cell line growth inhibition, 48 h
property.measured: TGI

| compound | meas.value |
| --- | --- |
| O=C(O)c1ccccc1N=Cc1ccc(N(CCCl)CCCl)cc1 | > 100 µM |
| NNC(=O)C(=O)N/N=C1\CCC(=O)CC1C(=O)CCC(=O)Nc1ccc(Cl)cc1 (configuration not stated) | > 100 µM |
| CC1CCSC(N(C(=O)N(C)c2ccccc2)c2ccccc2)=N1 (configuration not stated) | > 100 µM |
| NNC(=O)C1(NC(=O)c2ccccc2)C(c2ccccc2)C(c2ccccc2)=NN1c1ccccc1 (configuration not stated) | > 100 µM |
| CC(C)(C)n1c(=O)[nH]c(=O)n1C(C)(C)C | > 100 µM |
| COc1ccc2cc(CNCCCCCCNCc3ccc4cc(OC)ccc4c3)ccc2c1 | 2.64 µM |
| C=C1CCC2(C#N)[C@H]3[C@H](CC[C@@H]2C)[C@@H](C)C[C@@H](CC(C)(C)NC(=O)CN2CCC2=O)[C@H]13 (some centres not stated) | 35.6 µM |
| COc1ccc(C(=O)C(CC2C(=O)NC(=O)NC2=O)c2ccc(OC)cc2)cc1 (configuration not stated) | > 100 µM |
| O=C1CC(c2[nH]nc3ccccc23)C(=O)N1c1ccccc1 (configuration not stated) | > 100 µM |
| CCOC(=O)c1cc(C)nc2c1c(=O)n(-c1ccccc1)c(=O)n2CCCCN1CCN(c2ccccc2)CC1 | > 100 µM |
| C/C(=N\Nc1nc2cc(C(F)(F)F)ccc2s1)c1ccccn1 | 4.69 µM |
| Cc1ccc(S(=O)CC(CF)OCn2cc(C)c(=O)[nH]c2=O)cc1 (configuration not stated) | > 100 µM |
